pKd values, listed per item
ASSAY SYSTEM: T1, Human DDR1 extracellular domain (ECD) protein (human, UniProt Q08345 21-417)
T1 construct: also called recombinant human DDR1 ECD; huDDR1 ECD; not shown: 6xHIS-tag
T1 sequence (Q08345 21-417): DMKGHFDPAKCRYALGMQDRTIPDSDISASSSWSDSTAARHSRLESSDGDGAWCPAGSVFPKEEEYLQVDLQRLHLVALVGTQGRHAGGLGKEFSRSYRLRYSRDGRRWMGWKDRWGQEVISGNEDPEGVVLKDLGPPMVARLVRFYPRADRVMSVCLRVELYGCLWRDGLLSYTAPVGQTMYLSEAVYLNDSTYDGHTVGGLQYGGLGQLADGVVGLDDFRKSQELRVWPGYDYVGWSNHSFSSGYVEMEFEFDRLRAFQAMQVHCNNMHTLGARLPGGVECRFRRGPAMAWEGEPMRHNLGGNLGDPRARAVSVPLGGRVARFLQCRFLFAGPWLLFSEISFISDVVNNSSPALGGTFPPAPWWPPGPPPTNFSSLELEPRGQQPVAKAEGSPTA
TEST NAME: BLI (Octet 96-Red), antibody on protein A biosensors, recombinant DDR1 0.1-200 nM, 1:1 fit
Recall that pKd is obtained by taking minus log10 of the concentration measured in molar.

BINDER	pKd
DDR1-33 (antibody, V domains shown, Rabbit variable domains; also called anti-huDDR1 #33 antibody; DDR1-33K/DDR1-33H) VH: QSVEESGGRLVTPGGSLTLTCTVSGFSLSSYDMSWVRQAPGKGLEWIGISWNSGFVDYASWAKGRFSISKTSTTVDLKITSPTTEDTATYFCARLGADDIYYFNLWGPGTLVTISS VL: ELVMTQTPASVEAAVGGTVTIKCQASETISSRLAWYQQKPGQPPKLLIYQASKLPSGVPSRFKGTGSGTEYTLTISDLECADAATYYCQGCYYGGGSFYDSAFGGGTEVVVK	9.10
DDR1-9 (antibody, V domains shown, Rabbit variable domains; also called anti-huDDR1 antibody #9; DDR1-9K/DDR1-9H) VH: QSLEESGGRLVTPGTPLTLTCTASGFSLNRYYMLWVRQAPGEGLEWIGTISYGDTTYYASWAKGRFTISKTSTTVDLKMTSPTTEDTATYFCARADTGDNGYLGLQLWGPGTLVTVSS VL: ELVMTQTPASVEAAVGGTVTIKCQASQSIGSVLAWYQQKPGQRPKLLISGVFDLASGVPSRFKGSGSGTEFTLTISDLECADAATYYCQYIPYGSSPFGGGTEVVVK	9.63
DDR1-3 (antibody, V domains shown, Rabbit variable domains; also called anti-huDDR1 antibody #3; DDR1-3K/DDR1-3H) VH: QSVKESGGRLVTPGTPLTLTCTVSGIDLSSYAMSWVRQAPGKGLEWIGTINIGGGTWDATWARGRFTISRTSTTVDLKITSPTIGDTATYFCARDVDAHTLTYFTLWGPGTLVTISS VL: ELVLTQTPASVSEPVGGTVTIKCQASQTISSWLSWYQQKPGQPPKLLIYYAFNLASGVPSRFKGSGSGTEFTLTISDLECADAATYYCQQGISSSNVDNVFGGGTEVVVK	8.96

// next item, pKd requested
Suppose we examine the binder DDR1-14 (antibody, V domains shown, Rabbit variable domains; also called anti-huDDR1 antibody #14; DDR1-14K/DDR1-14H) VH: QSVKESGGRLVTPGTPLTLTCTVSGIDLSYYAMSWVRQAPGKGLEYIGIINGRGDTGYATWAKGRFTISKTSTTVDLRITSPTIEDTATYFCAREDSAIPFIVGNYYGMDLWGPGTLVTVSS VL: ELDMTQTPASVSEPVGGTVTIKCQASQSISSYLAWYQQKPGQPPKRLIFEASTLASGVPSRFSGSGSGTDFTLTISDLECADAATYYCQNNNGFSGSNFNNFGGGTEVEIK ; what pKd value has been reported?
9.95

The measured values listed here are drawn from patent US20230235078A1.
